tested on: MOLT-4 leukemia; assay: NCI tumour cell line growth inhibition, 48 h
measured_parameter: TGI

For every record below, what is its TGI?
1. O=C1CCCCCCCC/C=C\CC(c2ccco2)O1 (stereo not given)
2. O=C1c2cc3c(cc2-c2c1c1ccc(Cl)cc1c(=O)n2CCCNCCO)OCO3
3. Cc1nc2sc3ccccc3n2c(=O)c1N=Nc1ccc(Br)cc1
4. O=C1C=C(Sc2ccccc2)c2nccc3c2c1nc1ccccc13

65.7 µM
0.512 µM
> 100 µM
23.5 µM

----------
test system: HT29 colon; experiment: NCI tumour cell line growth inhibition, 48 h
measured_parameter: TGI

compound=Clc1cc(Cc2cc(Cl)c(Cl)c3c2OCOC3)c2c(c1Cl)COCO2 measured_parameter=TGI result="> 100 µM"
compound="OC1(c2ccccc2)CC2CCC(C1)N2CCCC1(c2ccc(F)cc2)OCCO1 (stereo not given)" measured_parameter=TGI result="> 100 µM"
compound="CCC(CO)Nc1nc(NCc2ccccc2O)c2ncn(C(C)C)c2n1 (stereo not given)" measured_parameter=TGI result="60.1 µM"

For every record below, what is its TGI?
1. CC(C)[C@H](CO)Nc1nc(Nc2ccc(C(=O)NCCNS(=O)(=O)c3cccc4c(N(C)C)cccc34)c(Cl)c2)c2ncn(C(C)C)c2n1
2. Cc1ccc2ccccc2c1NC1=NCCO1

1: > 41.8 µM; 2: > 100 µM
